Items are presented alongside their recorded shrunken log2 fold change.
# Test system: Escherichia coli TOP10
# Assay Details: shrunken log2 fold change of peptide-encoding DNA abundance (4.5 h post-induction vs induction); higher = less antimicrobial activity (less host growth inhibition)
# Condition Info: time post-induction: 4.5 h; library: site-saturation at positions 5, 18, 19, 20
Write the number on its own, no unit after it.

Sample answers from the record:
{"columns": ["Input Sequence", "shrunken log2 fold change"],
 "data": [
  ["RRIRQRPPRLPRPRPRPHKHPRP", -0.502],
  ["RRIRWRPPRLPRPRPRPWCEPRP", -0.372],
  ["RRIRHRPPRLPRPRPRPGGIPRP", -0.092],
  ["RRIRRRPPRLPRPRPRPGHWPRP", 0.0797]
]}

Provide measured shrunken log2 fold change on Escherichia coli TOP10 for RRIRFRPPRLPRPRPRPEMNPRP please.
-0.253

Write shrunken log2 fold change of RRIRYRPPRLPRPRPRPDGQPRP ; system used: Escherichia coli TOP10
0.0173

Give measured shrunken log2 fold change for RRIRPRPPRLPRPRPRPQPNPRP (Escherichia coli TOP10).
0.185

Print Escherichia coli TOP10 shrunken log2 fold change for RRIRSRPPRLPRPRPRPNDCPRP .
-0.00188

GET shrunken log2 fold change where system = Escherichia coli TOP10 and item = RRIRHRPPRLPRPRPRPWGRPRP
0.0574

Send back Escherichia coli TOP10 shrunken log2 fold change of RRIRWRPPRLPRPRPRPWSPPRP only.
-0.0542

---

Known shrunken log2 fold change of a selection of sequences
# Tested on: Escherichia coli TOP10
# Assay Details: shrunken log2 fold change of peptide-encoding DNA abundance (4.5 h post-induction vs induction); higher = less antimicrobial activity (less host growth inhibition)
# Condition Info: time post-induction: 4.5 h; library: site-saturation at positions 5, 18, 19, 20

// worked examples, shrunken log2 fold change included
{"columns": ["Input Sequence", "Assay System", "shrunken log2 fold change"],
 "data": [
  ["RRIRHRPPRLPRPRPRPGFGPRP", "Escherichia coli TOP10", 0.384],
  ["RRIRNRPPRLPRPRPRPYKIPRP", "Escherichia coli TOP10", -0.0214],
  ["RRIRRRPPRLPRPRPRPFRHPRP", "Escherichia coli TOP10", -0.212],
  ["RRIRPRPPRLPRPRPRPRLVPRP", "Escherichia coli TOP10", 0.323],
  ["RRIRWRPPRLPRPRPRPSLYPRP", "Escherichia coli TOP10", -0.402],
  ["RRIRTRPPRLPRPRPRPHYYPRP", "Escherichia coli TOP10", -0.744],
  ["RRIRERPPRLPRPRPRPDWTPRP", "Escherichia coli TOP10", 0.0763],
  ["RRIRIRPPRLPRPRPRPWGFPRP", "Escherichia coli TOP10", -0.185]
]}

Quote Escherichia coli TOP10 shrunken log2 fold change for entry RRIRWRPPRLPRPRPRPDDTPRP .
0.222

Please report shrunken log2 fold change with Escherichia coli TOP10 for item RRIRNRPPRLPRPRPRPFEKPRP .
-0.0819

Provide Escherichia coli TOP10 shrunken log2 fold change reading for RRIRERPPRLPRPRPRPLPSPRP .
-0.0852

Report measured shrunken log2 fold change on Escherichia coli TOP10; entry: RRIRWRPPRLPRPRPRPAATPRP
2.26

Lab note: Escherichia coli TOP10 assay, enter shrunken log2 fold change for RRIRERPPRLPRPRPRPEAVPRP here
0.292

GET shrunken log2 fold change | system: Escherichia coli TOP10 | item: RRIRVRPPRLPRPRPRPDWSPRP
-0.316

// fetch shrunken log2 fold change for RRIRYRPPRLPRPRPRPSHWPRP ; system: Escherichia coli TOP10
-0.225

Provide shrunken log2 fold change, recorded with Escherichia coli TOP10, of RRIRCRPPRLPRPRPRPFIFPRP
-0.425

Please respond with reported shrunken log2 fold change (system Escherichia coli TOP10) for RRIRDRPPRLPRPRPRPYSSPRP .
-0.152

---

# Tested on: Escherichia coli TOP10
# Assay Details: shrunken log2 fold change of peptide-encoding DNA abundance (4.5 h post-induction vs induction); higher = less antimicrobial activity (less host growth inhibition)
# Condition Info: time post-induction: 4.5 h; library: site-saturation at positions 5, 18, 19, 20
# label = yes (1) if shrunken log2 fold change >= -0.05 else no (0)

Recorded results for 4 sequences are shown here.
{"columns": ["Input Sequence", "Label Class"],
 "data": [
  ["RRIRFRPPRLPRPRPRPFFYPRP", "no (0)"],
  ["RRIRARPPRLPRPRPRPIIGPRP", "no (0)"],
  ["RRIRLRPPRLPRPRPRPWFPPRP", "no (0)"],
  ["RRIRGRPPRLPRPRPRPINGPRP", "yes (1)"]
]}

Has RRIRVRPPRLPRPRPRPVTWPRP a recorded shrunken log2 fold change greater than or equal to -0.05?
no (0)

Is shrunken log2 fold change for RRIRFRPPRLPRPRPRPHRSPRP at or above -0.05?
no (0)

Check if shrunken log2 fold change >= -0.05 (inclusive). Item: RRIRARPPRLPRPRPRPKDQPRP
yes (1)

Say whether RRIRDRPPRLPRPRPRPCLSPRP shows shrunken log2 fold change of -0.05 or more.
yes (1)

Hi team, for RRIRIRPPRLPRPRPRPRDKPRP , is the recorded shrunken log2 fold change at or above -0.05?
yes (1)

---

# Test system: Escherichia coli TOP10
# Assay Details: shrunken log2 fold change of peptide-encoding DNA abundance (4.5 h post-induction vs induction); higher = less antimicrobial activity (less host growth inhibition)
# Condition Info: time post-induction: 4.5 h; library: site-saturation at positions 5, 18, 19, 20
Would you mind labelling by shrunken log2 fold change? At or over -0.008 is label 1, under is label 0.

{"columns": ["Input Sequence", "Label Class"],
 "data": [
  ["RRIRLRPPRLPRPRPRPVKIPRP", "label 0"],
  ["RRIRIRPPRLPRPRPRPITQPRP", "label 0"],
  ["RRIRDRPPRLPRPRPRPTGKPRP", "label 1"],
  ["RRIRCRPPRLPRPRPRPRWKPRP", "label 1"]
]}

I'd appreciate it if you could say whether RRIRERPPRLPRPRPRPYWTPRP has shrunken log2 fold change at least equal to -0.008.
label 0

Quick check: does RRIRGRPPRLPRPRPRPCQNPRP have shrunken log2 fold change greater than or equal to -0.008?
label 1

Evaluate RRIRARPPRLPRPRPRPDELPRP : shrunken log2 fold change at minimum -0.008?
label 1

Check if shrunken log2 fold change >= -0.008 (inclusive). Item: RRIRYRPPRLPRPRPRPLDGPRP
label 0

Record RRIRKRPPRLPRPRPRPDEDPRP ; criterion: shrunken log2 fold change no lower than -0.008. Met?
label 1

Does RRIRKRPPRLPRPRPRPMIWPRP have a reported shrunken log2 fold change of at least -0.008?
label 1

---

Reported shrunken log2 fold change values are given for each entry in this list.
# Test system: Escherichia coli TOP10
# Assay Details: shrunken log2 fold change of peptide-encoding DNA abundance (4.5 h post-induction vs induction); higher = less antimicrobial activity (less host growth inhibition)
# Condition Info: time post-induction: 4.5 h; library: site-saturation at positions 5, 18, 19, 20
Please respond with just the number, no unit label.

{"columns": ["Input Sequence", "Assay System", "Measurement"],
 "data": [
  ["RRIRYRPPRLPRPRPRPDYYPRP", "Escherichia coli TOP10", -0.00141],
  ["RRIRARPPRLPRPRPRPWAQPRP", "Escherichia coli TOP10", 0.0167],
  ["RRIRARPPRLPRPRPRPLAFPRP", "Escherichia coli TOP10", 0.703],
  ["RRIRCRPPRLPRPRPRPVPDPRP", "Escherichia coli TOP10", -0.0739],
  ["RRIRRRPPRLPRPRPRPTCMPRP", "Escherichia coli TOP10", 0.315],
  ["RRIRTRPPRLPRPRPRPWPYPRP", "Escherichia coli TOP10", -0.157]
]}

Return shrunken log2 fold change (reported value) for this sequence: RRIRTRPPRLPRPRPRPRNTPRP
-0.209

Please supply the value of reported shrunken log2 fold change for the item RRIRQRPPRLPRPRPRPIFVPRP
-0.217

Check the records and state shrunken log2 fold change for RRIRCRPPRLPRPRPRPWYCPRP
-0.248

---

# System: Escherichia coli TOP10;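 also: peptides expressed intracellularly from a pBAD plasmid library in pooled LB shake-flask culture, induced with 0.3% L-arabinose, DNA abundance read by NGS, three biological replicates, DESeq2 with apeglm shrinkage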
# Assay Details: shrunken log2 fold change of peptide-encoding DNA abundance (4.5 h post-induction vs induction); higher = less antimicrobial activity (less host growth inhibition)
# Condition Info: time post-induction: 4.5 h; library: site-saturation at positions 5, 18, 19, 20
Property Measured: shrunken log2 fold change
I'd appreciate a reply containing only the number, no unit.

Answered cases to consult:
{"columns": ["Input Sequence", "Measurement"],
 "data": [
  ["RRIRWRPPRLPRPRPRPFHWPRP", 0.175],
  ["RRIRIRPPRLPRPRPRPDKIPRP", -0.0602],
  ["RRIRQRPPRLPRPRPRPKWHPRP", 0.48],
  ["RRIRWRPPRLPRPRPRPQAAPRP", 0.702]
]}

Answer with the recorded shrunken log2 fold change of RRIRCRPPRLPRPRPRPTSGPRP only.
0.285
